System: LG0567-F671-PDC complex spheroids viability
Assay: Anticancer human tumor LG0567-F671-PDC patient-derived lung adenocarcinoma cell line growth inhibition [RAS]
Conditions: curve of first compound; second compound 0.01 µM
pIC50: −log10 of the molar value.
molecules and their reported pIC50

Molecule	pIC50
CC(C)n1nc(-c2ccc3oc(N)nc3c2)c2c(N)ncnc21 + C=CC(=O)N1CCN(c2nc(OCC3CCCN3C)nc3c(F)c(-c4nc(N)cc(C)c4C(F)(F)F)c(Cl)cc23)C(C)C1	> 9.50
Nc1ccn(C2OC(CO)C(O)C2(F)F)c(=O)n1 (stereo not drawn) + C=CC(=O)N1CCN(c2nc(OCC3CCCN3C)nc3c(F)c(-c4nc(N)cc(C)c4C(F)(F)F)c(Cl)cc23)C(C)C1	> 8.50
CCC(CC)c1cc(NC2CCC(N)C2)n2nccc2n1 (stereo not drawn) + C=CC(=O)N1CCN(c2nc(OCC3CCCN3C)nc3c(F)c(-c4nc(N)cc(C)c4C(F)(F)F)c(Cl)cc23)C(C)C1	> 7.50

----------
System: LG0567-F671-PDC complex spheroids viability
Assay: Anticancer human tumor LG0567-F671-PDC cell line growth inhibition [RAS];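 also: spheroids exposed to compound for seven days before readout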
Conditions: second compound 0.00316 µM; first compound 0.01 µM; stronger effect = lower value

Molecule	Test target	viability, T/C [%]
C=CC(=O)Nc1cc(Nc2nccc(-c3cn(C)c4ccccc34)n2)c(OC)cc1N(C)CCN(C)C + C=CC(=O)N1CCN(c2nc(OCC3CCCN3C)nc3c(F)c(-c4nc(N)cc(C)c4C(F)(F)F)c(Cl)cc23)C(C)C1	LG0567-F671-PDC complex spheroids viability	15.6
CCN1CCN(Cc2ccc(Nc3ncc(F)c(-c4cc(F)c5nc(C)n(C(C)C)c5c4)n3)nc2)CC1 + C=CC(=O)N1CCN(c2nc(OCC3CCCN3C)nc3c(F)c(-c4nc(N)cc(C)c4C(F)(F)F)c(Cl)cc23)C(C)C1	LG0567-F671-PDC complex spheroids viability	14.9
Nc1ccn(C2OC(CO)C(O)C2(F)F)c(=O)n1 (stereo not given) + C=CC(=O)N1CCN(c2nc(OCC3CCCN3C)nc3c(F)c(-c4nc(N)cc(C)c4C(F)(F)F)c(Cl)cc23)C(C)C1	LG0567-F671-PDC complex spheroids viability	16.4
CC(C)n1nc(-c2ccc3oc(N)nc3c2)c2c(N)ncnc21 + C=CC(=O)N1CCN(c2nc(OCC3CCCN3C)nc3c(F)c(-c4nc(N)cc(C)c4C(F)(F)F)c(Cl)cc23)C(C)C1	LG0567-F671-PDC complex spheroids viability	9.86
O=C(c1ccc(F)c(F)c1Nc1ccc(I)cc1F)N1CC(O)([C@@H]2CCCCN2)C1 + C=CC(=O)N1CCN(c2nc(OCC3CCCN3C)nc3c(F)c(-c4nc(N)cc(C)c4C(F)(F)F)c(Cl)cc23)C(C)C1	LG0567-F671-PDC complex spheroids viability	16.9

----------
Tested on: LG0567-F671-PDC complex spheroids viability
Assay: Anticancer human tumor LG0567-F671-PDC cell line growth inhibition [RAS]; active means viability on the fitted dose curve at most 10% of control; inactive means the rest;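 also: spheroids exposed to compound for seven days before readout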
Details: second compound 0.316 µM; first compound 0.3 µM
Excerpt: RAS pathway inhibitors in Combinations in Complex Spheroids A high-throughput screen of multi-cell type tumor spheroids was designed to identify active combinations of RAS pathway inhibitors and targeted small molecules. Complex spheroids include a stromal component modeled by human endothelial cells (HUVEC) and fibroblasts modeled by human mesenchymal stem cells (MSCs). […] Compounds. […] If the clinical Cmax for an agent had not been determined, the highest concentration tested was 10 microM. […]
Outcomes: label 1 for active, label 0 for inactive

Compound	Class
CCc1c2c(nc3ccc(O)cc13)-c1cc3c(c(=O)n1C2)COC(=O)[C@]3(O)CC + C=CC(=O)N1CCN(c2nc(OCC3CCCN3C)nc3c(F)c(-c4nc(N)cc(C)c4C(F)(F)F)c(Cl)cc23)C(C)C1	label 1
CCc1c2c(nc3ccc(O)cc13)-c1cc3c(c(=O)n1C2)COC(=O)[C@]3(O)CC + C#Cc1c(F)ccc2cc(O)cc(-c3ncc4c(N5CC6CCC(C5)N6)nc(OCC56CCCN5CC(F)C6)nc4c3F)c12	label 1
CC1(C)CCC(Nc2ncc(C(F)(F)F)c(-c3c[nH]c4c(P(C)(C)=O)c(C#N)ccc34)n2)CN1 (centres undefined) + C#Cc1c(F)ccc2cc(O)cc(-c3ncc4c(N5CC6CCC(C5)N6)nc(OCC56CCCN5CC(F)C6)nc4c3F)c12	label 0
CC1(C)CCC(Nc2ncc(C(F)(F)F)c(-c3c[nH]c4c(P(C)(C)=O)c(C#N)ccc34)n2)CN1 (centres undefined) + C=CC(=O)N1CCN(c2nc(OCC3CCCN3C)nc3c(F)c(-c4nc(N)cc(C)c4C(F)(F)F)c(Cl)cc23)C(C)C1	label 0

FYI, the data here is from PubChem BioAssay AID2060889.
